Where do the numbers come from? From patent US11254686B1.

target: adenosine A2A receptor (Homo sapiens (Human), UniProt P29274); experiment: Adenosine receptor activity assay (Table 1), A2A activity; format: biochemical; settings: read-out: Ave A2A cAMP IC50
Sequence (P29274 whole entry): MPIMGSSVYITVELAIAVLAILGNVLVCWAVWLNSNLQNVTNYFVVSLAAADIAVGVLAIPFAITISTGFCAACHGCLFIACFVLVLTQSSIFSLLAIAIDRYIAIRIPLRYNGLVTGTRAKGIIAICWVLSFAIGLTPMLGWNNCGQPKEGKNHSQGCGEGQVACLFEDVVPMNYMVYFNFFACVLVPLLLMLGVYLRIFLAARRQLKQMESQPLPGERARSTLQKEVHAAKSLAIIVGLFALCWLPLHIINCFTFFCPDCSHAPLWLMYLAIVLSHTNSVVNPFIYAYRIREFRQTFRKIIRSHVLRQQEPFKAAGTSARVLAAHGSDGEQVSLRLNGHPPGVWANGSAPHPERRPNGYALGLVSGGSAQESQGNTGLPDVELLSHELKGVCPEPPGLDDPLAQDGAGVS
readout: IC50

Lab note: `COc1ccc(CNC(=O)c2nc(NCc3cncc(F)c3)nc3ccsc23)cn1` gave IC50 of 100 to 500 nM

Lab note: `Cc1cc2nc(N[C@@H](C)c3cncc(F)c3)nc(C(=O)N3CC(CC(=O)OC(C)(C)C)C3)c2s1` gave IC50 of 10 to 50 nM

Lab note: `COc1ccc(CNc2nc(C(=O)N3CCCC3)c3sccc3n2)cc1OC` gave IC50 of > 500 nM

Lab note: `C[C@H](NC(=O)c1nc(N[C@@H](C)c2ccccn2)nc2ccsc12)c1ccccn1` gave IC50 of 10 to 50 nM

Lab note: `COC[C@@H](Nc1nc(C(=O)NC[C@@H](C)O)c2sccc2n1)c1cccnc1` gave IC50 of 100 to 500 nM

Lab note: `COc1ccc(CNC(=O)c2nc(NCc3cncc(C)c3)nc3ccsc23)cn1` gave IC50 of 100 to 500 nM

Lab note: `Cc1cc2nc(N[C@@H](C)c3cccnc3)nc(C(=O)NCc3ccccn3)c2s1` gave IC50 of 100 to 500 nM

Lab note: `C[C@H](Nc1nc(C(=O)N2CC[C@@H](N)C2)c2sccc2n1)c1ccccn1` gave IC50 of > 500 nM

* * *

target: adenosine A2A receptor (Homo sapiens (Human), UniProt P29274); assay: Adenosine receptor activity assay (Table 1), A2A activity; type: biochemical; conditions: read-out: Ave A2A cAMP IC50
readout: IC50

Lab note: `O=C(c1nc(NCc2cncc(C(F)(F)F)c2)nc2ccsc12)N1CC[C@H](O)C1` gave IC50 of > 0.5 µM

Lab note: `O=C(NC1CCC1)c1nc(NCc2cc(F)cc(F)c2)nc2ccsc12` gave IC50 of 0.05 to 0.1 µM

Lab note: `CN[C@H]1CCN(C(=O)c2nc(N[C@@H](C)c3cncc(F)c3)nc3cc(C)sc23)C1` gave IC50 of > 0.5 µM

Lab note: `C[C@H](Nc1nc(C(=O)NCCC2CNC2)c2sccc2n1)c1ccccn1` gave IC50 of > 0.5 µM

Lab note: `O=C(NCc1cccc(F)c1)c1nc(NCc2cccc(F)c2)nc2ccsc12` gave IC50 of 0.1 to 0.5 µM

Lab note: `O=C(c1nc(NCc2cncc(F)c2)nc2ccsc12)N1CC[C@H](O)C1` gave IC50 of > 0.5 µM

Lab note: `Cc1csc2c(C(=O)N3CCC3)nc(N[C@@H](C)c3cncc(F)c3)nc12` gave IC50 of 0.01 to 0.05 µM

Lab note: `N[C@H]1CCN(C(=O)c2nc(NCc3cncc(F)c3)nc3ccsc23)C1` gave IC50 of > 0.5 µM

Lab note: `COC1CN(C(=O)c2nc(NCc3cncc(F)c3)nc3ccsc23)C1` gave IC50 of 0.1 to 0.5 µM

Lab note: `O=C(NCc1ccc(C(F)(F)F)nc1)c1nc(NCc2ccc(C(F)(F)F)nc2)nc2ccsc12` gave IC50 of > 0.5 µM

Lab note: `O=C(c1nc(NCc2cccc(F)c2)nc2ccsc12)N1CCCC1` gave IC50 of > 0.5 µM

Lab note: C[C@H](Nc1nc(C(=O)N2CC(NC(=O)C3CCOC3)C2)c2sccc2n1)c1cncc(F)c1 (stereo partly drawn) gave IC50 of 0.01 to 0.05 µM

Lab note: `CO[C@H]1CCN(C(=O)c2nc(N[C@@H](C)c3ccccn3)nc3cc(C)sc23)C1` gave IC50 of 0.05 to 0.1 µM

Lab note: `Cc1cc2nc(N[C@@H](C)c3ccccn3)nc(C(=O)N3CCCC3)c2s1` gave IC50 of 0.01 to 0.05 µM

Lab note: `C[C@H](Nc1nc(C(=O)N2CCCC2)c2sccc2n1)c1cncc(F)c1` gave IC50 of 0.1 to 0.5 µM

Lab note: `CC(=O)N[C@H]1CCN(C(=O)c2nc(N[C@@H](C)c3cncc(F)c3)nc3cc(C)sc23)C1` gave IC50 of > 0.5 µM

Lab note: `Cc1cc2nc(N[C@@H](C)c3cccnc3)nc(C(=O)N3CC(CNC(=O)C(C)(C)C)C3)c2s1` gave IC50 of 0.1 to 0.5 µM

Lab note: COCC(Nc1nc(C(=O)NC2COC2)c2sccc2n1)c1cccnc1 (stereo not drawn) gave IC50 of 0.1 to 0.5 µM

Lab note: `C[C@H](Nc1nc(C(=O)N2CC(CN(C)C(=O)C(C)(C)C)C2)c2sccc2n1)c1cncc(F)c1` gave IC50 of 0.01 to 0.05 µM

Lab note: `Cc1cc2nc(N[C@@H](C)c3cncc(F)c3)nc(C(=O)NCC[C@H]3CCNC3)c2s1` gave IC50 of > 0.5 µM

Lab note: `Cc1cc2nc(N[C@@H](C)c3cccnc3)nc(C(=O)N3CC(CO)C3)c2s1` gave IC50 of > 0.5 µM

Lab note: C[C@H](Nc1nc(C(=O)NCCC2CCN(C(=O)OC(C)(C)C)C2)c2sccc2n1)c1ccccn1 (stereo partly drawn) gave IC50 of 0.05 to 0.1 µM

Lab note: `C[C@H](Nc1nc(C(=O)N2CCC(F)(F)C2)c2sccc2n1)c1ccccn1` gave IC50 of 0.1 to 0.5 µM

Lab note: `C[C@H](Nc1nc(C(=O)NCc2cncc(C#N)c2)c2sccc2n1)c1cccnc1` gave IC50 of 0.1 to 0.5 µM

Lab note: `C[C@H](Nc1nc(C(=O)NC2CC2)c2sccc2n1)c1ccccn1` gave IC50 of 0.01 to 0.05 µM

Lab note: `C[C@H](Nc1nc(C(=O)N2CCNC2)c2sccc2n1)c1cncc(F)c1` gave IC50 of > 0.5 µM

Lab note: `COc1cccc(CNC(=O)c2nc(N[C@@H](C)c3ccccn3)nc3c(C)csc23)n1` gave IC50 of 0.01 to 0.05 µM

Lab note: `C[C@H](Nc1nc(C(=O)N[C@H]2C[C@@H](O)C2)c2sccc2n1)c1cncc(Cl)c1` gave IC50 of 0.05 to 0.1 µM

Lab note: CC(CNC(=O)c1nc(N[C@@H](C)c2ccccn2)nc2ccsc12)Oc1cccnc1 (stereo partly drawn) gave IC50 of 0.1 to 0.5 µM

Lab note: `COc1ccc([C@@H](C)Nc2nc(C(=O)NCc3ccc(OC)nc3)c3sccc3n2)cc1` gave IC50 of 0.01 to 0.05 µM

Lab note: `C[C@H](Nc1nc(C(=O)NCCNC(=O)C(C)(C)C)c2sccc2n1)c1cncc(F)c1` gave IC50 of 0.1 to 0.5 µM

Lab note: `COc1cncc(CNc2nc(C(=O)N3CCC3)c3sccc3n2)c1` gave IC50 of > 0.5 µM

Lab note: `Cc1cc2nc(N[C@@H](C)c3cncc(F)c3)nc(C(=O)N3CC[C@H](NC(=O)OCc4ccccc4)C3)c2s1` gave IC50 of > 0.5 µM
